Molecular target: HLA-A*02:03
Assay: IEDB peptide-MHC binding, purified MHC/competitive/radioactivity; filed as Kd, often an IC50 or EC50 that approximates it; bounds were set here for any values at or beyond the usual limits of such assays
Settings: source organism: Trypanosoma cruzi
Recorded pKd by entry
Lab note: report pKd as minus log10 of the concentration in molar units, number only.

A selection of reference data follows.
# sequence record, measured value
data = [
    ("GITRPTTVV", 6.10),
    ("GVLPLLLLYS", 6.17),
]

Read the next record carefully.
Q: Return pKd (reported value) for this sequence: FLSHDFTLV
A: 9.85

----------
Molecular target: HLA-C*06:02
Experiment: IEDB peptide-MHC binding, purified MHC/competitive/fluorescence; filed as Kd, often an IC50 or EC50 that approximates it; bounds were set here for any values at or beyond the usual limits of such assays
Details: source organism: Yersinia pestis Nepal516
experimental readout: pKd
Lab note: report pKd as minus log10 of the concentration in molar units, number only.

Q: Return pKd (reported value) for this sequence: MLYPLLWMF
A: 5.45

----------
Molecular target: HLA-B*07:02
Test: IEDB peptide-MHC binding, purified MHC/direct/fluorescence; filed as Kd, often an IC50 or EC50 that approximates it; bounds were set here for any values at or beyond the usual limits of such assays
Details: source organism: Rickettsia typhi
experimental readout: Kd (nM)
Report the value in nM with no unit label.

Q: Return Kd (reported value) for this sequence: APILVVSGI
A: 157

----------
Biological target: HLA-B*58:01
Experiment: IEDB peptide-MHC binding, purified MHC/competitive/radioactivity; filed as Kd, often an IC50 or EC50 that approximates it; bounds were set here for any values at or beyond the usual limits of such assays
Conditions: source organism: Dengue virus 1 Brazil/97-11/1997
experimental readout: Kd (nM)
Report the value in nM with no unit label.

Q: Return Kd (reported value) for this sequence: ATLFVWYFW
A: 200

----------
Molecular target: HLA-A*68:01
Assay: IEDB peptide-MHC binding, purified MHC/competitive/radioactivity; filed as Kd, often an IC50 or EC50 that approximates it; bounds were set here for any values at or beyond the usual limits of such assays
Details: source organism: Vaccinia virus WR
pKd: −log10 of the molar value.
Note that class boundaries on pKd are lower = under 6, middle = from 6 up to 7, upper = 7 and over

Below, 2 sequences whose answers are already recorded.
# sequence record, class name
measured = [
    ("VFIHMVRCCK", "lower"),
    ("TFVNFNSVK", "upper"),
]

Q: Just checking, what class would you give YVGIKLGDK here?
A: lower

Q: Just checking, what class would you give YSKKFQESFY here?
A: lower

Q: Just checking, what class would you give SARNKLFKR here?
A: middle

Q: Just checking, what class would you give YVKALTKNY here?
A: lower

Q: Just checking, what class would you give TIQRFSSLRR here?
A: upper

Q: Just checking, what class would you give LSKDKMDSFK here?
A: upper

Q: Just checking, what class would you give TIDKSSPLY here?
A: middle

Q: Just checking, what class would you give GLFDFVNFVK here?
A: upper

Q: Just checking, what class would you give YILQLIRHGR here?
A: upper

Q: Just checking, what class would you give PSRSKMLKR here?
A: lower

Q: Just checking, what class would you give PFEKEFTSDY here?
A: lower

Q: Just checking, what class would you give STELIRRVR here?
A: upper

Q: Just checking, what class would you give DIVNEHDIK here?
A: lower

Q: Just checking, what class would you give TQMRTPLHK here?
A: lower

Q: Just checking, what class would you give KALMQLTTK here?
A: lower

Q: Just checking, what class would you give GTIAGGVCY here?
A: lower

Q: Just checking, what class would you give SMTYLYNKY here?
A: lower

Q: Just checking, what class would you give EFCVDHPFIY here?
A: lower

Q: Just checking, what class would you give QIDRLEDLSK here?
A: lower

Q: Just checking, what class would you give LILNFLDWIK here?
A: middle

Q: Just checking, what class would you give PSVNEYHMLK here?
A: middle

Q: Just checking, what class would you give ISLNSMYTR here?
A: upper

----------
Biological target: HLA-A*01:01
Experiment: IEDB peptide-MHC binding, purified MHC/direct/fluorescence; filed as Kd, often an IC50 or EC50 that approximates it; bounds were set here for any values at or beyond the usual limits of such assays
Details: source organism: Yersinia pestis
pKd: −log10 of the molar value.
experimental readout: pKd

Q: Return pKd (reported value) for this sequence: NVMAADPPK
A: ≤ 4.70

----------
Target: HLA-A*02:01
Test: IEDB peptide-MHC binding, purified MHC/competitive/fluorescence; filed as Kd, often an IC50 or EC50 that approximates it; bounds were set here for any values at or beyond the usual limits of such assays
Details: source organism: Brucella abortus bv. 2 str. 86/8/59
experimental readout: pKd
Lab note: report pKd as minus log10 of the concentration in molar units, number only.

Q: Return pKd (reported value) for this sequence: ILDDPEIYP
A: 4.92

----------
Target: HLA-A*26:01
Experiment: IEDB peptide-MHC binding, purified MHC/competitive/fluorescence; filed as Kd, often an IC50 or EC50 that approximates it; bounds were set here for any values at or beyond the usual limits of such assays
Conditions: source organism: Cryptosporidium parvum Iowa II
experimental readout: Kd

Q: Return Kd (reported value) for this sequence: VYWENEVSI
A: ≥ 20 µM

----------
Target: HLA-A*02:01
Experiment: IEDB peptide-MHC binding, purified MHC/competitive/radioactivity; filed as Kd, often an IC50 or EC50 that approximates it; bounds were set here for any values at or beyond the usual limits of such assays
Conditions: source organism: Lassa virus Josiah
experimental readout: Kd

# sequence record, Kd
data = [
    ("AVSGGLNTSV", "≥ 25 µM"),
]

Q: Return Kd (reported value) for this sequence: SILRVGTLT
A: ≥ 25 µM

----------
Target: HLA-B*15:01
Assay: IEDB peptide-MHC binding, purified MHC/competitive/fluorescence; bounds were set here for any values at or beyond the usual limits of such assays
Details: source organism: Sudan ebolavirus
Recorded pIC50 by entry
Lab note: report pIC50 as minus log10 of the concentration in molar units, number only.

A selection of reference data follows.
# sequence record, experimental readout, measured value
measured = [
    ("GVPPKVVSY", "pIC50", 4.24),
    ("LQSPPIREA", "pIC50", 4.42),
]

Q: Return pIC50 (reported value) for this sequence: LLQLPRDKF
A: 4.97

Q: Return pIC50 (reported value) for this sequence: GLMHNQNAL
A: 4.94

----------
Molecular target: HLA-A*02:01
Assay: IEDB peptide-MHC binding, purified MHC/direct/fluorescence; filed as Kd, often an IC50 or EC50 that approximates it; bounds were set here for any values at or beyond the usual limits of such assays
Settings: source organism: SARS-CoV1
experimental readout: Kd (nM)
Report the value in nM with no unit label.

Q: Give measured Kd for SLAIDAYPL (HLA-A*02:01).
A: 145

----------
Recorded pKd by entry
Biological target: HLA-A*11:01
Assay: IEDB peptide-MHC binding, purified MHC/direct/fluorescence; filed as Kd, often an IC50 or EC50 that approximates it; bounds were set here for any values at or beyond the usual limits of such assays
Conditions: source organism: Homo sapiens
Lab note: report pKd as minus log10 of the concentration in molar units, number only.

# sequence record, target entity, measured value
rows = [
    ("YTAVVPLVY", "HLA-A*11:01", 5.60),
]

Q: Return pKd (reported value) for this sequence: YLGSWATGK
A: 5.84

----------
Target: HLA-A*69:01
Assay: IEDB peptide-MHC binding, purified MHC/direct/fluorescence; filed as Kd, often an IC50 or EC50 that approximates it; bounds were set here for any values at or beyond the usual limits of such assays
Details: source organism: Pasteurella multocida
experimental readout: Kd

Q: Return Kd (reported value) for this sequence: NNKSRLVAF
A: ≥ 20 µM

----------
Molecular target: HLA-A*69:01
Experiment: IEDB peptide-MHC binding, purified MHC/competitive/fluorescence; filed as Kd, often an IC50 or EC50 that approximates it; bounds were set here for any values at or beyond the usual limits of such assays
Conditions: source organism: Vibrio cholerae O395
experimental readout: Kd

Q: Return Kd (reported value) for this sequence: RVHFHRFMY
A: ≥ 20 µM

----------
Target: HLA-A*31:01
Experiment: IEDB peptide-MHC binding, purified MHC/competitive/radioactivity; filed as Kd, often an IC50 or EC50 that approximates it; bounds were set here for any values at or beyond the usual limits of such assays
Conditions: source organism: Dengue virus 4 Philippines/H241/1956
experimental readout: Kd (nM)
Report the value in nM with no unit label.

Q: Return Kd (reported value) for this sequence: TFKVPHAKR
A: 1.2

----------
Target: HLA-B*58:01
Assay: IEDB peptide-MHC binding, purified MHC/direct/fluorescence; filed as Kd, often an IC50 or EC50 that approximates it; bounds were set here for any values at or beyond the usual limits of such assays
Conditions: source organism: Mycobacterium tuberculosis
pKd: −log10 of the molar value.
experimental readout: pKd

Q: Return pKd (reported value) for this sequence: AVFPRYHPR
A: ≤ 4.70
